Test system: NCI60 cell lines
Assay: NCI60 cell line panel
Type: cell-based, human
Conditions: Non-Small Cell Lung Cancer, NCI-H226
Listing: GIPRCNT: % Growth inhibition of selected molecules
Reply with just the number (in %).

Solved entries (count: 3):
GIPRCNT: % Growth inhibition reported for this molecule CCN(CC)CCCC(C)Nc1cnc(C(=O)Nc2ccc(Cl)c3cccnc23)cn1 (centres unmarked) [J9] : 39.13

GIPRCNT: % Growth inhibition reported for this molecule CCN(CC)CCCC(C)Nc1cnc(C(=O)Nc2cccc3ccc(OC)nc23)cn1 (centres unmarked) [J11] : 61.44

GIPRCNT: % Growth inhibition reported for this molecule CCN(CC)CCCC(C)Nc1cnc(C(=O)Nc2cc(F)cc3cccnc23)cn1 (centres unmarked) [J17] : 85.09

Further cases:
GIPRCNT: % Growth inhibition reported for this molecule O=C(Nc1cc(F)cc2cccnc12)c1cnc(N2CCNCC2)cn1 [J44] : 100.3613

GIPRCNT: % Growth inhibition reported for this molecule CCN(CC)CCCC(C)Nc1cnc(C(=O)Nc2cc(C)cc3cccnc23)cn1 (centres unmarked) [J4] : 60.39

* * *

Test system: NCI60 cell lines
Assay: NCI60 cell line panel
Type: cell-based, human
Conditions: Renal Cancer, TK-10
Listing: GIPRCNT: % Growth inhibition of selected compounds

So the reported GIPRCNT: % Growth inhibition for CCN(CC)CCCC(C)Nc1cnc(C(=O)Nc2cc(C)cc3cccnc23)cn1 (centres unmarked) , on NCI60 cell lines, turned out to be 86.86%

So the reported GIPRCNT: % Growth inhibition for CCN(CC)CCCC(C)Nc1cnc(C(=O)Nc2cccc3ccc(OC)nc23)cn1 (centres unmarked) , on NCI60 cell lines, turned out to be 90.98%

So the reported GIPRCNT: % Growth inhibition for O=C(Nc1cc(F)cc2cccnc12)c1cnc(N2CCNCC2)cn1 , on NCI60 cell lines, turned out to be 74.98%

Further cases:
So the reported GIPRCNT: % Growth inhibition for CCN(CC)CCCC(C)Nc1cnc(C(=O)Nc2ccc(Cl)c3cccnc23)cn1 (centres unmarked) , on NCI60 cell lines, turned out to be 57.61%

So the reported GIPRCNT: % Growth inhibition for CCN(CC)CCCC(C)Nc1cnc(C(=O)Nc2cc(F)cc3cccnc23)cn1 (centres unmarked) , on NCI60 cell lines, turned out to be 63.68%

* * *

Listing: GIPRCNT: % Growth inhibition of selected molecules
Test system: NCI60 cell lines
Experiment: NCI60 cell line panel
Format: cell-based, human
Conditions: Non-Small Cell Lung Cancer, HOP-62
Reply with just the number (in %).

Solved entries (count: 4):
So the reported GIPRCNT: % Growth inhibition for CCN(CC)CCCC(C)Nc1cnc(C(=O)Nc2cc(F)cc3cccnc23)cn1 (centres unmarked) [J17] , on NCI60 cell lines, turned out to be 64.08

So the reported GIPRCNT: % Growth inhibition for O=C(Nc1cc(F)cc2cccnc12)c1cnc(N2CCNCC2)cn1 [J44] , on NCI60 cell lines, turned out to be 85.24

So the reported GIPRCNT: % Growth inhibition for CCN(CC)CCCC(C)Nc1cnc(C(=O)Nc2ccc(Cl)c3cccnc23)cn1 (centres unmarked) [J9] , on NCI60 cell lines, turned out to be 43.04

So the reported GIPRCNT: % Growth inhibition for CCN(CC)CCCC(C)Nc1cnc(C(=O)Nc2cc(C)cc3cccnc23)cn1 (centres unmarked) [J4] , on NCI60 cell lines, turned out to be 91.15

// moving on: another record for GIPRCNT: % Growth inhibition
So the reported GIPRCNT: % Growth inhibition for CCN(CC)CCCC(C)Nc1cnc(C(=O)Nc2cccc3ccc(OC)nc23)cn1 (centres unmarked) [J11] , on NCI60 cell lines, turned out to be 94.18

* * *

Test system: NCI60 cell lines
Assay: NCI60 cell line panel
Type: cell-based, human
Conditions: Breast Cancer, T-47D
Method: The Developmental Therapeutics Program (DTP) of NCI has evaluated more than 100,000 pure compounds and more than 34,000 crude extracts against the panel of human tumor cell lines. The resultant data are analyzed using a program called COMPARE, that rank the entire database of tested compounds in the order of the similarity of the responses. […] Thus, the NCI60 databases is highly useful to the cancer research community. […]
Listing: GIPRCNT: % Growth inhibition of selected compounds
Reply with just the number (in %).

Solved entries (count: 2):
GIPRCNT: % Growth inhibition reported for this compound CCN(CC)CCCC(C)Nc1cnc(C(=O)Nc2cc(F)cc3cccnc23)cn1 (centres unmarked) : 14.34

GIPRCNT: % Growth inhibition reported for this compound CCN(CC)CCCC(C)Nc1cnc(C(=O)Nc2ccc(Cl)c3cccnc23)cn1 (centres unmarked) : −49.3289

Further cases:
GIPRCNT: % Growth inhibition reported for this compound O=C(Nc1cc(F)cc2cccnc12)c1cnc(N2CCNCC2)cn1 : 18.05

GIPRCNT: % Growth inhibition reported for this compound CCN(CC)CCCC(C)Nc1cnc(C(=O)Nc2cccc3ccc(OC)nc23)cn1 (centres unmarked) : 83.88

GIPRCNT: % Growth inhibition reported for this compound CCN(CC)CCCC(C)Nc1cnc(C(=O)Nc2cc(C)cc3cccnc23)cn1 (centres unmarked) : 32.641

* * *

System: NCI60 cell lines
Experiment: NCI60 cell line panel
Assay type: cell-based, human
Details: Colon Cancer, HCT-15
value kind: GIPRCNT: % Growth inhibition (%)
Reply with just the number (in %).

Solved entries (count: 4):
GIPRCNT: % Growth inhibition reported for this compound CCN(CC)CCCC(C)Nc1cnc(C(=O)Nc2cc(F)cc3cccnc23)cn1 (centres unmarked) : 24.5

GIPRCNT: % Growth inhibition reported for this compound CCN(CC)CCCC(C)Nc1cnc(C(=O)Nc2cc(C)cc3cccnc23)cn1 (centres unmarked) : 59.89

GIPRCNT: % Growth inhibition reported for this compound O=C(Nc1cc(F)cc2cccnc12)c1cnc(N2CCNCC2)cn1 : 40.52

GIPRCNT: % Growth inhibition reported for this compound CCN(CC)CCCC(C)Nc1cnc(C(=O)Nc2ccc(Cl)c3cccnc23)cn1 (centres unmarked) : 3.732

// moving on: another record for GIPRCNT: % Growth inhibition
GIPRCNT: % Growth inhibition reported for this compound CCN(CC)CCCC(C)Nc1cnc(C(=O)Nc2cccc3ccc(OC)nc23)cn1 (centres unmarked) : −25.625

* * *

Tested on: NCI60 cell lines
Assay: NCI60 cell line panel
Format: cell-based, human
Conditions: Breast Cancer, HS 578T
Binary classification by GIPRCNT: % Growth inhibition, with 70% as an inclusive lower bound for true (1); all other cases are false (0).

Inquiry: Is GIPRCNT: % Growth inhibition for CCN(CC)CCCC(C)Nc1cnc(C(=O)Nc2ccc(Cl)c3cccnc23)cn1 (centres unmarked) at or above 70%?
Reply text: false (0)

Now for a further compound.
Inquiry: Is GIPRCNT: % Growth inhibition for CCN(CC)CCCC(C)Nc1cnc(C(=O)Nc2cc(C)cc3cccnc23)cn1 (centres unmarked) at or above 70%?
Reply text: true (1)

* * *

Tested on: NCI60 cell lines
Assay: NCI60 cell line panel
Type: cell-based, human
Details: Renal Cancer, SN12C
value kind: GIPRCNT: % Growth inhibition
Provide a numeric answer, followed by its unit.

Solved entries (count: 4):
GIPRCNT: % Growth inhibition reported for this compound O=C(Nc1cc(F)cc2cccnc12)c1cnc(N2CCNCC2)cn1 : 54.07%

GIPRCNT: % Growth inhibition reported for this compound CCN(CC)CCCC(C)Nc1cnc(C(=O)Nc2ccc(Cl)c3cccnc23)cn1 (centres unmarked) : 31.6819%

GIPRCNT: % Growth inhibition reported for this compound CCN(CC)CCCC(C)Nc1cnc(C(=O)Nc2cccc3ccc(OC)nc23)cn1 (centres unmarked) : 78.47%

GIPRCNT: % Growth inhibition reported for this compound CCN(CC)CCCC(C)Nc1cnc(C(=O)Nc2cc(C)cc3cccnc23)cn1 (centres unmarked) : 77.92%

// moving on: another record for GIPRCNT: % Growth inhibition
GIPRCNT: % Growth inhibition reported for this compound CCN(CC)CCCC(C)Nc1cnc(C(=O)Nc2cc(F)cc3cccnc23)cn1 (centres unmarked) : 54.47%

* * *

Tested on: NCI60 cell lines
Experiment: NCI60 cell line panel
Assay type: cell-based, human
Conditions: Renal Cancer, 786-0
value kind: GIPRCNT: % Growth inhibition (%)
Reply with just the number (in %).

Solved entries (count: 4):
GIPRCNT: % Growth inhibition reported for this compound O=C(Nc1cc(F)cc2cccnc12)c1cnc(N2CCNCC2)cn1 : 100.1067

GIPRCNT: % Growth inhibition reported for this compound CCN(CC)CCCC(C)Nc1cnc(C(=O)Nc2cccc3ccc(OC)nc23)cn1 (centres unmarked) : 73.41

GIPRCNT: % Growth inhibition reported for this compound CCN(CC)CCCC(C)Nc1cnc(C(=O)Nc2cc(C)cc3cccnc23)cn1 (centres unmarked) : 88.22

GIPRCNT: % Growth inhibition reported for this compound CCN(CC)CCCC(C)Nc1cnc(C(=O)Nc2cc(F)cc3cccnc23)cn1 (centres unmarked) : 68.3555

// moving on: another record for GIPRCNT: % Growth inhibition
GIPRCNT: % Growth inhibition reported for this compound CCN(CC)CCCC(C)Nc1cnc(C(=O)Nc2ccc(Cl)c3cccnc23)cn1 (centres unmarked) : −44.1831

Values were extracted from patent US20220081412A1.
